test system: PPARg:RXRa IVT, anti-PPARg (NR concentration 270 nM, RXRa partner concentration 90 nM); experiment: PBM binding z-score (relative to random genomic background probes); higher = stronger binding; sequences stand for … in GC…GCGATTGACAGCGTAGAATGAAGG
Please mark 1.0 if the recorded PBM binding z-score is equal to or greater than 1, and 0.0 if it falls below.

Ask: Does the reported PBM binding z-score for TGAATGAGGTTATAAGATCAGGGATCGTTGCAAA fall at or above the 1 mark?
Reply: 1.0

Ask: Does the reported PBM binding z-score for ATAGAAAGGTCGAGGTGAGTATAGAGAAAGGGAA fall at or above the 1 mark?
Reply: 1.0

Ask: Does the reported PBM binding z-score for TGAATGAGGTTAAAGAACAGGGAACGTGGCGTCG fall at or above the 1 mark?
Reply: 1.0
